Assign Activity to each entry below.
# System: MCF7
# Assay text: Estrogenic effect in human MCF7 cells assessed as stimulation of cell proliferation at 10 ug/ml relative to control by [3H]hypoxanthine incorporation assay
# Format: functional
Answers are plain numbers, in %.

Solved entries:
# Chemical string, Measurement unit, Activity
data = [
    ("CC1=CC(=O)[C@@H]2[C@](C)(CC[C@@]2(O)C(C)C)CC1=O", "%", -285.7),
    ("CC1=CC(=O)[C@@H]2[C@@](C)(CC1)CC[C@@]2(O)C(C)C", "%", 181.4),
    ("O=c1c(-c2ccc(O)cc2)coc2cc(O)cc(O)c12", "%", -76.7),
]

**Q:** What Activity appears in the records for this compound with MCF7? C/C=C(/C)C(=O)O[C@@]1(C)CCC2=C(C(C)C)[C@@H](OCC)C[C@]2(C)CC1=O
**A:** 974.4
